# tested.on: Gagpol MAPPIT prey (pMG2-Gagpol)
# experimental.details: MAPPIT
result.type: percent of parent

| substance | result |
| --- | --- |
| Apobec3G-GFP MAPPIT bait (pCEL-Apobec3G-GFP) (from UniProt Q9HC16) R78W | 6 % of WT |
| Apobec3G-GFP MAPPIT bait (pCEL-Apobec3G-GFP) (from UniProt Q9HC16) Q237K | 46 % of WT |
| Apobec3G-GFP MAPPIT bait (pCEL-Apobec3G-GFP) (from UniProt Q9HC16) R238C | 56 % of WT |
| Apobec3G-GFP MAPPIT bait (pCEL-Apobec3G-GFP) (from UniProt Q9HC16) K79M | 32 % of WT |
| Apobec3G-GFP MAPPIT bait (pCEL-Apobec3G-GFP) (from UniProt Q9HC16) Y222N | 6 % of WT |
| Apobec3G-GFP MAPPIT bait (pCEL-Apobec3G-GFP) (from UniProt Q9HC16) W269G | 33 % of WT |
| Apobec3G-GFP MAPPIT bait (pCEL-Apobec3G-GFP) (from UniProt Q9HC16) H81L | 33 % of WT |
| Apobec3G-GFP MAPPIT bait (pCEL-Apobec3G-GFP) (from UniProt Q9HC16) R30L | 5 % of WT |
| Apobec3G-GFP MAPPIT bait (pCEL-Apobec3G-GFP) (from UniProt Q9HC16) K270E | 67 % of WT |

* * *

# tested.on: Gagpol MAPPIT prey (pMG2-Gagpol)
# experimental.details: MAPPIT
result.type: percent of parent

| substance | result |
| --- | --- |
| Apobec3G-GFP MAPPIT bait (pCEL-Apobec3G-GFP) (from UniProt Q9HC16) D128G | 11 % of WT |
| Apobec3G-GFP MAPPIT bait (pCEL-Apobec3G-GFP) (from UniProt Q9HC16) N20D | 22 % of WT |
| Apobec3G-GFP MAPPIT bait (pCEL-Apobec3G-GFP) (from UniProt Q9HC16) W94R | 13 % of WT |
| Apobec3G-GFP MAPPIT bait (pCEL-Apobec3G-GFP) (from UniProt Q9HC16) E191V | 8 % of WT |
| Apobec3G-GFP MAPPIT bait (pCEL-Apobec3G-GFP) (from UniProt Q9HC16) R136S | 24 % of WT |
| Apobec3G-GFP MAPPIT bait (pCEL-Apobec3G-GFP) (from UniProt Q9HC16) R30L | 5 % of WT |
| Apobec3G-GFP MAPPIT bait (pCEL-Apobec3G-GFP) (from UniProt Q9HC16) R122C | 5 % of WT |
